Exercise: state measured pKi for each of the molecules provided.
- TESTED ON: ER-α (Homo sapiens, UniProt P03372)
- Construct: made in house; host or cells: cell-free: TNT T7 Quick-Coupled rabbit reticulocyte lysate (Promega L1170)
- Sequence (P03372 whole entry): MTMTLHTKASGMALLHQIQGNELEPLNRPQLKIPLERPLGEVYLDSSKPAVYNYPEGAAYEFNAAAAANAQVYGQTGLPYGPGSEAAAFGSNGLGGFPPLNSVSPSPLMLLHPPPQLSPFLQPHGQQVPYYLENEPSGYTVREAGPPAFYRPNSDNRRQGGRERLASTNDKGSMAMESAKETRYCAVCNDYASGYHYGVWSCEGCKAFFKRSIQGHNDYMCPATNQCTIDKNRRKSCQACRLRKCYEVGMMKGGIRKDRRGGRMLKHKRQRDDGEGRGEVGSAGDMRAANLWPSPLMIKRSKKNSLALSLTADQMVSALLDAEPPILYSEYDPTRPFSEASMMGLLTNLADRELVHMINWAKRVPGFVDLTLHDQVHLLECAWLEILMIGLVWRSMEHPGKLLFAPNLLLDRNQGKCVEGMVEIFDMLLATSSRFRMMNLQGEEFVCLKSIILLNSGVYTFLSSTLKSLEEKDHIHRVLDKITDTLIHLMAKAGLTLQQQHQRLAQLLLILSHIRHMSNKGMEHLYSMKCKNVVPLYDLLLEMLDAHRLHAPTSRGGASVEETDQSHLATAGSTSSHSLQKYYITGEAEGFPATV
- ASSAY METHOD TEXT: Estrogen receptor binding measurement (competition with [125I]-estradiol), ER-α; tables head the values "FP α-ER Ki"
- RUN CONDITIONS: read-out: FP α-ER Ki
- Protocol: Receptor protein was prepared by in vitro transcription and translation of these plasmids using the TNT T7 Quick-Coupled reticulocyte lysate system (Promega Cat.#L1170). […] Programmed lysate was then aliquotted and stored frozen at −80° C. […] Receptor-bound and unbound radioligand was separated by filtration over sephadex columns. […] A scintillation cocktail (145 μL) was added to the eluted radioligand/receptor complex, and radio-label was measured by liquid scintillation counting. […]
pKi field: float, defined as -log10 of concentration (mol/L).

Consider the molecule shown here: `O=c1c(-c2ccc(O)cc2)coc2cc(O)cc(Br)c12` What is its recorded pKi? 6.60

Reported pKi, molecule `O=c1oc2cc(O)cc(Cl)c2cc1-c1ccc(O)cc1` : ____ 7.21

I have this molecule here, Oc1ccc(C2COc3cc(O)cc(Cl)c3C2)cc1 (stereo not shown) , and I need its recorded pKi. 7.89

# get_value(readout='pKi', item= `Cc1cc(O)ccc1-c1coc2cc(O)cc(Cl)c2c1=O` ) 6.05

Bench note: what pKi did `O=c1c(-c2ccc(O)cc2)coc2cc(O)cc(Cl)c12` show? 6.22

Would you mind telling me what pKi value was observed for `O=c1c(-c2ccc(O)cc2)coc2cc(O)cc(I)c12` ? 6.83

Would you kindly share the measured pKi for `CSc1cc(O)cc2occ(-c3ccc(O)cc3)c(=O)c12` ? 6.25

# query: pKi of entry `O=c1c(-c2ccc(O)cc2Cl)coc2cc(O)cc(Cl)c12` 6.52

* * *

- TESTED ON: ER-α (Homo sapiens, UniProt P03372)
- Construct: made in house; host or cells: cell-free: TNT T7 Quick-Coupled rabbit reticulocyte lysate (Promega L1170)
- ASSAY METHOD TEXT: Estrogen receptor binding measurement (competition with [125I]-estradiol), ER-α; tables head the values "FP α-ER Ki"
- RUN CONDITIONS: LOQ = 0.01 nM, upper limit 1000 nM; read-out: FP ER-α Ki
- Description: Receptor protein was prepared by in vitro transcription and translation of these plasmids using the TNT T7 Quick-Coupled reticulocyte lysate system (Promega Cat.#L1170). […] Programmed lysate was then aliquotted and stored frozen at −80° C. […] Receptor-bound and unbound radioligand was separated by filtration over sephadex columns. […] A scintillation cocktail (145 μL) was added to the eluted radioligand/receptor complex, and radio-label was measured by liquid scintillation counting. […]
ASSAY ENDPOINT: Ki

Look up Ki for this molecule: `Cc1oc2cc(O)cc(Cl)c2c(=O)c1-c1ccc(O)cc1` ≥ 1 µM

* * *

- TESTED ON: ER-β (Homo sapiens, UniProt Q92731)
- Construct: made in house; host or cells: cell-free: TNT T7 Quick-Coupled rabbit reticulocyte lysate (Promega L1170)
- Sequence (Q92731 54-530 limits assumed): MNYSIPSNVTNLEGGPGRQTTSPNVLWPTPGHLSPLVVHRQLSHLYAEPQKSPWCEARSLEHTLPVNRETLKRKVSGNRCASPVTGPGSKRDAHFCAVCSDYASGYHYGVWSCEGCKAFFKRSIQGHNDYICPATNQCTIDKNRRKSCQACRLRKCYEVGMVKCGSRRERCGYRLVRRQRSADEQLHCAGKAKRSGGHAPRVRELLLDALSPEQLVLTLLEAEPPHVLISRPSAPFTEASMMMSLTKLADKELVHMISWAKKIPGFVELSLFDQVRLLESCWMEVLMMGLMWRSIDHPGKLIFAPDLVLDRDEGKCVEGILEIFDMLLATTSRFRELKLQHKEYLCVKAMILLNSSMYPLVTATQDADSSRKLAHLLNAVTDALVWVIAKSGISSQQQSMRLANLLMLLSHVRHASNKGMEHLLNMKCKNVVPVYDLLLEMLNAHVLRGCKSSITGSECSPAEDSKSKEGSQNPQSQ
- ASSAY METHOD TEXT: Estrogen receptor binding measurement (competition with [125I]-estradiol), ER-β; tables head the values "FP β-ER Ki"
- RUN CONDITIONS: LOQ = 0.01 nM, upper limit 1000 nM; read-out: FP ER-β Ki
ASSAY ENDPOINT: Ki (nM)
Give the quantity in nM, number only.

Looking for the measured Ki of `Cc1oc2cc(O)cc(Cl)c2c(=O)c1-c1ccc(O)cc1` , can you help? 46.1

FYI, the data here is from patent US7226945B2.
